# Measured On: T1, HLA-DR molecule encoded by the allele DRB4*0101 (human)
# T1 chain 1: not shown
# T1 chain 2: not shown
# Assay Protocol: competition ELISA vs biotinylated E2/E168
pIC50: −log10 of the molar value.
The label depends only on pIC50: 1.0 if it is at least 6, 0.0 if it is smaller.

{"Binder": "EANKGENTSLLHPVSLHGMDDPEREVLEWRF (modifications not checked) [Nef11 peptide (positions 155-185 of the HIV-1 Nef protein, Bru strain), P03406 155-185]", "Cat": 1.0}
{"Binder": "YKLVPVEPDKVEEAN (modifications not checked) [Nef10.4 peptide (positions 143-157 of the HIV-1 Nef protein, Bru strain), P03406 143-157]", "Cat": 0.0}
{"Binder": "EWRFDSRLAFHHVAREL (modifications not checked) [Nef13 peptide (positions 182-198 of the HIV-1 Nef protein, Bru strain), P03406 182-198]", "Cat": 0.0}

Task item: Reported pIC50 at or above 6? FGWCYKLVPVEPDKV (modifications not checked) [Nef10.2 peptide (positions 139-153 of the HIV-1 Nef protein, Bru strain), P03406 139-153]
Reply: 1.0

Task item: Would you say LIHSQRRQDILDLWI (modifications not checked) [Nef6 peptide (positions 100-114 of the HIV-1 Nef protein, Bru strain), P03406 100-114] shows pIC50 at minimum 6?
Reply: 0.0

Task item: In plain terms: is recorded pIC50 at least 6 for LTFGWCYKLVPVEPD (modifications not checked) [Nef10.1 peptide (positions 137-151 of the HIV-1 Nef protein, Bru strain), P03406 137-151] ?
Reply: 0.0
